# System: K98450-129-R-PDC complex spheroid growth, percent test/control;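 further: luminescence used as a proxy for viable cell amount; spheroids exposed to agents for seven days before the viability readout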
# assayProcedure: Anticancer human tumor K98450-129-R-PDC patient-derived colon adenocarcinoma cell line growth inhibition [RAS]
# measurementParameters: second compound 0.316 µM; first compound 1 µM; hits give low values
Quick reference: viability, T/C of the listed items.
Provide the reading as a plain figure in %.

Illustrative cases are given below, each with its answer.
[ask] Value lookup for viability, T/C; key = CC(=O)OC12COC1CC(O)C1(C)C(=O)C(O)C3=C(C)C(OC(=O)C(O)C(NC(=O)OC(C)(C)C)c4ccccc4)CC(O)(C(OC(=O)c4ccccc4)C21)C3(C)C (centres undefined) + C#Cc1c(F)ccc2cc(O)cc(-c3ncc4c(N5CC6CCC(C5)N6)nc(OCC56CCCN5CC(F)C6)nc4c3F)c12
[reply] 35.5

[ask] Value lookup for viability, T/C; key = C[C@@H](NC(=O)c1ncnc(N)c1Cl)c1ncc(C(=O)Nc2cc(C(F)(F)F)c(Cl)cn2)s1 + C#Cc1c(F)ccc2cc(O)cc(-c3ncc4c(N5CC6CCC(C5)N6)nc(OCC56CCCN5CC(F)C6)nc4c3F)c12
[reply] 127

[ask] Value lookup for viability, T/C; key = CCN1CCN(Cc2ccc(Nc3ncc(F)c(-c4cc(F)c5nc(C)n(C(C)C)c5c4)n3)nc2)CC1 + C=CC(=O)N1CCN(c2nc(OCC3CCCN3C)nc3c(F)c(-c4nc(N)cc(C)c4C(F)(F)F)c(Cl)cc23)C(C)C1
[reply] 28.4

Further cases:
[ask] Value lookup for viability, T/C; key = NC1c2ccccc2OC12CCN(c1cnc3c(N4CCCc5ncccc54)n[nH]c3n1)CC2 (centres undefined) + C=CC(=O)N1CCN(c2nc(OCC3CCCN3C)nc3c(F)c(-c4nc(N)cc(C)c4C(F)(F)F)c(Cl)cc23)C(C)C1
[reply] 6.49
